Taken from PubChem BioAssay.

Entries and their z-score
Experiment: basal HepG2 mitochondrial membrane potential changes, profiling panel, cell-based, JC-1 fluorescence, 24 h, 100 nL compound (AID 1167); note: test concentration not given here
Conditions: higher = more signal
Lab note: record the figure alone, no unit after it.

Below: 3 compounds and their reported z-score.
Smiles	Measurement kind	Measured result
CO[C@H]1O[C@H](CO)[C@@H](OC(=O)Nc2ccccc2)[C@H](OC(=O)Nc2ccc3c(c2)OCO3)[C@@H]1OC(=O)Nc1ccc2c(c1)OCO2	z-score	-0.493
C=C[C@H](OC)[C@@H](OC(=O)Nc1ccc(SC)cc1)c1ccc(OC)c(O)c1	z-score	0.163
COCCOC(=O)N1C(=O)[C@@]2(c3ccccc31)[C@H](C(=O)N1CCc3cc(OC)c(OC)cc3C1)[C@H]1C(=O)O[C@H](c3ccccc3)[C@H](c3ccccc3)N1[C@@H]2c1ccccc1OCCO	z-score	1.24

Request the reported z-score associated with CC(C)C[C@@H]1NC(=O)[C@H]2C[C@@H](C(=O)NCCCCCC[N+](C)(C)C)[C@@H](c3ccc(O)cc3)N2C1=O
-0.575
